Below are AC50 values measured for D(3) dopamine receptor (Homo sapiens).

Before answering, review these 2 worked examples.
INSERT INTO measurements (molecule, observed) VALUES
  ('CCCCNc1ccc(C(=O)OCCN(C)C)cc1', '18.5 µM'),
  ('C[C@@H](O)[C@H]1C(=O)N2C(C(=O)[O-])=C(SC3Cn4cnc[n+]4C3)[C@H](C)[C@H]12 (stereo partly drawn)', '> 30 µM');

In: Dear colleague, I am looking for the recorded AC50 of the following molecule: `O=C(O)CCCc1ccc(N(CCCl)CCCl)cc1`
Out: > 30 µM

---

# target-of-assay: 5-hydroxytryptamine receptor 2C (Homo sapiens); note: assay procedure not described here
# Sequence (P28335 whole entry): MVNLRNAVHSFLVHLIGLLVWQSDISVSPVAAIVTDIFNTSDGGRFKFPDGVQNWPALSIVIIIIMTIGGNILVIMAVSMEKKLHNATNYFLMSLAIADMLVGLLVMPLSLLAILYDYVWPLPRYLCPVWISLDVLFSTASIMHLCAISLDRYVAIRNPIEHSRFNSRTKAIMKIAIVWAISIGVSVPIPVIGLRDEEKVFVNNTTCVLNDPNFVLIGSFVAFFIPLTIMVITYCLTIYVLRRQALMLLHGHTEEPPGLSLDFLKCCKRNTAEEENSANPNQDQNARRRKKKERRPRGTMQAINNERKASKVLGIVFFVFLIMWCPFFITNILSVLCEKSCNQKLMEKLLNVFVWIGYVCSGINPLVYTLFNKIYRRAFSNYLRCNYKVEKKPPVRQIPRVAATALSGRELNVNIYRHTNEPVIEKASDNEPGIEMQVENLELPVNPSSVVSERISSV
Give measured AC50 for each item. Keep answers brief.

Fill in AC50 for each of the 8 compounds listed.
1. CO/N=C(\C(=O)N[C@@H]1C(=O)N2C(C(=O)[O-])=C(C[n+]3cccc4c3CCC4)CS[C@H]12)c1csc(N)n1
2. CC(=O)OCC(CCn1cnc2cnc(N)nc21)COC(C)=O
3. O=C(O)CSCC(=O)NC1CCSC1=O (stereo not drawn)
4. Oc1c(I)cc(Cl)c2cccnc12
5. CC(C)(C)NCC(O)c1cc(Cl)c(N)c(Cl)c1 (stereo not drawn)
6. Clc1cccc(Cl)c1N=C1NCCN1
7. OCCN1CCN(CC/C=C2/c3ccccc3Sc3ccc(Cl)cc32)CC1
8. CN1CCN(c2c(F)cc3c(=O)c(C(=O)O)cn4c3c2SCC4)CC1

Out:
> 30 µM
> 30 µM
> 30 µM
> 10 µM
> 30 µM
> 30 µM
1 µM
> 30 µM

---

I'd appreciate it if you could supply AC50 values for the items below.
# target-of-assay: Sodium channel protein type 5 subunit alpha (Homo sapiens); note: assay procedure not described here
# Sequence (Q14524 whole entry): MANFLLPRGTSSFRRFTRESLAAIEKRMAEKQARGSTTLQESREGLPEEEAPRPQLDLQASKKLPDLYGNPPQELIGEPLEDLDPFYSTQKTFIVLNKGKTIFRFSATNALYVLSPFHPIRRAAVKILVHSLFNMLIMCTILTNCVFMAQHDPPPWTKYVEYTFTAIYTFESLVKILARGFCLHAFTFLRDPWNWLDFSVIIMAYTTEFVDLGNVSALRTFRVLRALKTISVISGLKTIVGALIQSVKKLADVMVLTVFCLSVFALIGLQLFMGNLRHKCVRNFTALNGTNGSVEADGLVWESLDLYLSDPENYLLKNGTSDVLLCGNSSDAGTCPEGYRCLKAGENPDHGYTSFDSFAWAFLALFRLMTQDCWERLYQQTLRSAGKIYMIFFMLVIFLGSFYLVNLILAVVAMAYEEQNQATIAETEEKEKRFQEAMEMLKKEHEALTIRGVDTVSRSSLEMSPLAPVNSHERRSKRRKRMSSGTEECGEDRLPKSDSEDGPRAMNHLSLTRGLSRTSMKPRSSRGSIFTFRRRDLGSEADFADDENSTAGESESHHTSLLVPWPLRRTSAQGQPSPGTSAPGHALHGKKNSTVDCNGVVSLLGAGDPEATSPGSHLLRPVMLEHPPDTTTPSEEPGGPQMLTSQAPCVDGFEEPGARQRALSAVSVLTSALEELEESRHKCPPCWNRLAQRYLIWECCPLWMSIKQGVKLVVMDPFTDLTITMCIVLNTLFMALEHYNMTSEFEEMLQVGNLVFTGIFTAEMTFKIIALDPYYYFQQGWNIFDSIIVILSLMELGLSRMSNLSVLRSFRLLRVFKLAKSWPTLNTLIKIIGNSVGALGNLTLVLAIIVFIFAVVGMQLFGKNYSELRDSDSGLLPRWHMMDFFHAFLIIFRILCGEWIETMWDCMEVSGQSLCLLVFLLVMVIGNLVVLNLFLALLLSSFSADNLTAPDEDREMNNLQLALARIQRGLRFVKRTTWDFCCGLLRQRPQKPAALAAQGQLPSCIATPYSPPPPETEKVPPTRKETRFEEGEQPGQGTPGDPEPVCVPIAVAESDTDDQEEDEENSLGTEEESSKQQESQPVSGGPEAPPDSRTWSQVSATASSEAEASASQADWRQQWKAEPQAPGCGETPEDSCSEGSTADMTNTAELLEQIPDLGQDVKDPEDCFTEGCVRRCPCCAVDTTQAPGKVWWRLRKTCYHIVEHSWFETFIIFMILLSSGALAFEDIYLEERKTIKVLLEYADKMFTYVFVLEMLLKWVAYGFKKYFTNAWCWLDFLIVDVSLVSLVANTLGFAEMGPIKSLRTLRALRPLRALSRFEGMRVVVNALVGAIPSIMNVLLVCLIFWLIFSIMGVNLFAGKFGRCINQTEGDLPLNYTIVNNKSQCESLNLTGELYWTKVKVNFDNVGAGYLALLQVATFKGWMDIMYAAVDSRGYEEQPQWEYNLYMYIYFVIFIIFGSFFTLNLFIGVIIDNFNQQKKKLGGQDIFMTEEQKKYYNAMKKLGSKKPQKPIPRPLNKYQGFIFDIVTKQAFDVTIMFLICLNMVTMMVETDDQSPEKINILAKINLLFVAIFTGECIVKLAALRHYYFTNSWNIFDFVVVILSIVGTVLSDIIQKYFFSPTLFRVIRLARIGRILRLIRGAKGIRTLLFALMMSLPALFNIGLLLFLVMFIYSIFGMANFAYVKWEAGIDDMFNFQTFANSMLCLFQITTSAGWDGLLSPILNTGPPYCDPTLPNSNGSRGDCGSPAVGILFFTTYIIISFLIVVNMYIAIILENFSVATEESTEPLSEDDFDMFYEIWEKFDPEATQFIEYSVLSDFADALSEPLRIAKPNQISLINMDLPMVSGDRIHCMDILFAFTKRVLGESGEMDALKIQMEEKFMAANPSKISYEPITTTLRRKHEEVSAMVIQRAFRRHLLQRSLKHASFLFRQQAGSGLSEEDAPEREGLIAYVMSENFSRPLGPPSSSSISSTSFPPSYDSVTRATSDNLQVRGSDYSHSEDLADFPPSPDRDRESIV
# Assay type: functional, cell-based

Here are 3 compounds together with their reported answers.
INSERT INTO measurements (compound, observed) VALUES
  ('NCCCC(O)(P(=O)(O)O)P(=O)(O)O', '> 30 µM'),
  ('CC1(C)S[C@@H]2[C@H](NC(=O)[C@H](N)c3ccc(O)cc3)C(=O)N2[C@H]1C(=O)O', '> 30 µM'),
  ('O=C1NC(=O)C(c2ccccc2)(c2ccccc2)N1', '> 50 µM');

Please report AC50 for every entry that follows.
1. Cc1ccc([C@@H]2O[C@H](CO)[C@@H](O)[C@H](O)[C@H]2O)cc1Cc1ccc(-c2ccc(F)cc2)s1 [CANAGLIFLOZIN ANHYDROUS]
2. CC#CCn1c(N2CCC[C@@H](N)C2)nc2c1c(=O)n(Cc1nc(C)c3ccccc3n1)c(=O)n2C
3. O=C(Nc1c(Cl)cncc1Cl)c1ccc(OC(F)F)c(OCC2CC2)c1
4. CNC[C@H](O)c1cccc(O)c1
5. C[C@H]1Oc2cc(cnc2N)-c2c(nn(C)c2C#N)CN(C)C(=O)c2ccc(F)cc21
6. COCCOC(=O)C1=C(C)NC(C)=C(C(=O)OC/C=C/c2ccccc2)C1c1cccc([N+](=O)[O-])c1 (stereo not given)
7. NC(=O)c1ncn([C@@H]2O[C@H](CO)[C@@H](O)[C@H]2O)n1
8. CC(C)N(CCCCOCC(=O)NS(C)(=O)=O)c1cnc(-c2ccccc2)c(-c2ccccc2)n1

Out:
1: > 50 µM; 2: > 150 µM; 3: > 50 µM; 4: > 30 µM; 5: > 30 µM; 6: > 50 µM; 7: > 50 µM; 8: 45 µM

Report AC50 for every entry below.
1. Cc1ccc(=O)n(-c2ccccc2)c1
2. COc1ccc2c(c1)[C@]13CCCC[C@@H]1[C@H](C2)N(C)CC3
3. NC(=O)NS(=O)(=O)c1ccc(N)cc1 [SULFACARBAMIDE]
4. N#Cc1ccccc1-c1cc(-c2ccccn2)cn(-c2ccccc2)c1=O

Out:
["> 50 µM", "> 30 µM", "> 50 µM", "> 30 µM"]

---

For Beta-2 adrenergic receptor (Homo sapiens, UniProt P07550), measured AC50 is reported for the entries below.

INSERT INTO results (compound, observed) VALUES
  ('CC(C)C[C@H](CN)CC(=O)O [PREGABALIN]', '> 30 µM'),
  ('Nc1nc(F)nc2c1ncn2[C@@H]1O[C@H](COP(=O)(O)O)[C@@H](O)[C@@H]1O [FLUDARABINE PHOSPHATE]', '> 30 µM'),
  ('CCCOC(C(=O)OC1CCN(C)CC1)(c1ccccc1)c1ccccc1 [PROPIVERINE]', '> 30 µM'),
  ('CC(CCc1ccccc1)NC(C)C(O)c1ccc(O)cc1 (configuration not stated) [NYLIDRIN]', '0.218 µM'),
  ('CCCN(CC)C(CC)C(=O)Nc1c(C)cccc1C (configuration not stated) [ETIDOCAINE]', '> 30 µM'),
  ('O=C(O)c1ccccc1Nc1cccc(C(F)(F)F)c1 [FLUFENAMIC ACID]', '> 10 µM');

// batch mode: one AC50 value per listed entry
1. CCC(=O)OCC(=O)[C@@]1(OC(=O)CC)[C@@H](C)C[C@H]2[C@@H]3CCC4=CC(=O)C=C[C@]4(C)[C@@]3(F)[C@@H](O)C[C@@]21C [BETAMETHASONE DIPROPIONATE]
2. COc1cc(OC)c(C(=O)CCCN2CCCC2)c(OC)c1 [BUFLOMEDIL]
3. CN1c2ccccc2C(NCCCCCCC(=O)O)c2ccc(Cl)cc2S1(=O)=O (configuration not stated) [TIANEPTINE]
4. Cc1ccc(=O)n(-c2ccccc2)c1 [PIRFENIDONE]
5. CC[N+]1(C)CCCC(OC(=O)C(O)(c2ccccc2)c2ccccc2)C1 (configuration not stated) [PIPENZOLATE]
6. N[C@H](Cc1cc(I)c(Oc2cc(I)c(O)c(I)c2)c(I)c1)C(=O)O [DEXTROTHYROXINE]

Out:
1: > 30 µM; 2: > 30 µM; 3: > 30 µM; 4: > 30 µM; 5: > 30 µM; 6: > 10 µM

---

# target-of-assay: Histamine H2 receptor (Homo sapiens); note: assay procedure not described here
# Sequence (P25021 whole entry): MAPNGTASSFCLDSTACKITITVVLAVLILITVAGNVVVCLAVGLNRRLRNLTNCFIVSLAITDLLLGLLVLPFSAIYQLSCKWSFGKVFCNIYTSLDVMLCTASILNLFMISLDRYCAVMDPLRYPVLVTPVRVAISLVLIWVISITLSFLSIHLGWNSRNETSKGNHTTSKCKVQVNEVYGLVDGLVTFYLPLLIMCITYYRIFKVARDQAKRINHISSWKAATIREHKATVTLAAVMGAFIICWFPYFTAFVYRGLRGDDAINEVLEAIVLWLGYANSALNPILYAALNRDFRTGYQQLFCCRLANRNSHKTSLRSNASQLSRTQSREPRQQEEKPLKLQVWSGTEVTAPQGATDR
# Format: functional, cell-based
readout-type: AC50

Known AC50 results, listed for orientation:
INSERT INTO measurements (molecule, observed) VALUES
  ('CC(C)C[C@H](CN)CC(=O)O', '> 10 µM'),
  ('NCCCC(O)(P(=O)(O)O)P(=O)(O)O', '> 10 µM'),
  ('C=CC(N)CCC(=O)O (configuration not stated)', '> 10 µM'),
  ('Cc1ccc2c(-c3ccccc3)nc(=O)n(C(C)C)c2c1', '> 30 µM'),
  ('C=CC1=C(C(=O)O)N2C(=O)[C@@H](NC(=O)/C(=N\OCC(=O)O)c3csc(N)n3)[C@H]2SC1', '> 30 µM'),
  ('CCCNC(C)C(=O)Nc1ccccc1C (configuration not stated)', '> 30 µM');

In: For the molecule CCN(CC)C(=O)C1(c2ccccc2)CC1CN (configuration not stated) , what AC50 is on record?
Out: > 30 µM

---

Quick record: AC50, 5-hydroxytryptamine receptor 1A (Homo sapiens, UniProt P08908).
Give bare numbers, in nM.

INSERT INTO results (compound, readout_type, scale_unit, observed) VALUES
  ('Cc1cc(CCN2CCN(c3cccc(Cl)c3)CC2)n[nH]1 [MEPIPRAZOLE]', 'AC50', 'nM', 3);

In: I have this compound here, `O=C1[C@H]2CCCC[C@H]2C(=O)N1CCCCN1CCN(c2nsc3ccccc23)CC1` , and I need its recorded AC50.
Out: 3

---

Reported AC50 for target or system B2 bradykinin receptor (Homo sapiens, UniProt P30411), by entry. Note: assay procedure not described here.

Example results:
INSERT INTO results (molecule, observed) VALUES
  ('NC(=O)c1ncn([C@@H]2O[C@H](CO)[C@@H](O)[C@H]2O)n1', '> 10 µM'),
  ('COc1cc(OC)c(C(=O)CCCN2CCCC2)c(OC)c1', '> 30 µM'),
  ('CC(CCc1ccccc1)NC(C)C(O)c1ccc(O)cc1 (stereo unspecified)', '> 30 µM'),
  ('COC1=C(OC)C(=O)C(CCCCCCCCCCO)=C(C)C1=O', '> 30 µM'),
  ('CC(/C=C1\SC(=S)N(CC(=O)O)C1=O)=C\c1ccccc1', '> 10 µM'),
  ('CC(=O)Nc1c(I)c(C(=O)N[C@H]2C(O)O[C@H](CO)[C@@H](O)[C@@H]2O)c(I)c(N(C)C(C)=O)c1I (stereo partly specified) [METRIZAMIDE]', '> 10 µM'),
  ('CCCC(C)(COC(N)=O)COC(=O)NC(C)C (stereo unspecified)', '> 30 µM'),
  ('CC[C@H]1OC(=O)[C@H](C)[C@@H](O[C@H]2C[C@@](C)(OC)[C@@H](O)[C@H](C)O2)[C@H](C)[C@@H](O[C@@H]2O[C@H](C)C[C@H](N(C)C)[C@H]2O)[C@](C)(OC)C[C@@H](C)C(=O)[C@H](C)[C@@H](O)[C@]1(C)O', '> 30 µM');

For each of the items listed, what is its AC50?
1. CCCCC1(CC)C(=O)NC(=O)NC1=O
2. CCOC(=O)Nc1ccc2c(c1)N(C(=O)CCN1CCOCC1)c1ccccc1S2
3. C=CC(N)CCC(=O)O (stereo unspecified)

Out:
1. > 30 µM
2. > 30 µM
3. > 10 µM
